- target or system: T1, His-tagged human BCMA (Acro Biosystems, Cat. #BCA-H522y) (human, UniProt Q02223 1-54)
- T1 construct: also called huBCMA; P1; not shown: His tag
- T1 sequence: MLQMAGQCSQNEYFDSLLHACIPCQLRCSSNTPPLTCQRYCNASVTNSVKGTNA
- assay name: ELISA, coated His-tagged human BCMA
pEC50: −log10 of the molar value.
The entries below are paired with their reported pEC50.
measurement name: pEC50

- 538-SP5-B10 hIgG1 (antibody, V domains shown, Human-mouse chimeric antibody, human IgG1 format) VH: EVQLQQSGPELVKPGASVKMSCKASGYTFTSYVMHWVKQKPGRGLEWIAYILPFNDVTKYNEKFKGKATLTSDKSSNTAYMELSSLTSEDSAVYYCARWEWDDGYFDYWGQGTTLTVSS VL: DAVMTQTPLSLPVSLGDQASISCRSSQSLENSNGNTYLNWYLQKPGQSPQLLIYRVSNRFSGVLDRFSGSGSGTDFTLKISRVEAEDLGVYFCLQVSHVPFTFGAGTKLELKR: 10.07
- J6M0 (antibody, V domains shown, also called J6M0-hIgG1; anti-BCMA) VH: QVQLVQSGAEVKKPGSSVKVSCKASGGTFSNYWMHWVRQAPGQGLEWMGATYRGHSDTYYNQKFKGRVTITADKSTSTAYMELSSLRSEDTAVYYCARGAIYDGYDVLDNWGQGTLVTVSS VL: DIQMTQSPSSLSASVGDRVTITCSASQDISNYLNWYQQKPGKAPKLLIYYTSNLHSGVPSRFSGSGSGTDFTLTISSLQPEDFATYYCQQYRKLPWTFGQGTKLEIK: 10.36
- 552-LN1-E9 hIgG1 (antibody, V domains shown, Human-mouse chimeric antibody, human IgG1 format; also called [6]) VH: QIQLVQSGPELKKPGETVKISCKASGYTFTDYSIYWVKQAPGKGLKWMGWINTETGEPTYADDFKGRFAFSLETSASSAYLQINTLKNEDTATYFCSISYYYAMDYWGQGTSVTVSS VL: DIVLTQSPASLAVSLGQRATISCRASKSVSTSGYSFLHWYQQKPGQPPKLLIYFASNLESGVPARFSGSGSGTDFTLNIHPVEEEDAATYYCQHSRELPRTFGGGTKLEIKR: 10.09
- 539-SP1-C8 hIgG1 (antibody, V domains shown, Human-mouse chimeric antibody, human IgG1 format; also called [2]) VH: EVQLQQSGPELVKPGSSVKMSCKASGYTFTNYVMHWVKQKPGQGLEWIGYILPYNDGTKYNEKFKGKATLTSDKSSSTAYMEFSVLTSEDSAVYYCARYDYEGSFDYWGQGTALTVSS VL: DIQMTQTTSSLSASLGDRVTISCRASQDISNYLNWYQQKPDGTVKLLMCYTSRLHSGVPSRFSGSGSGTDFSLTISNLEQEDIATYFCQQGNTFPPTFGGGTKLEIKR: 10.23

Values compiled from patent US20230374147A1.
